# ASSAY_TARGET: L. monocytogenes AgrC (Listeria monocytogenes serovar 1/2a)
# Sequence (Q8YAR5 entry or part of it): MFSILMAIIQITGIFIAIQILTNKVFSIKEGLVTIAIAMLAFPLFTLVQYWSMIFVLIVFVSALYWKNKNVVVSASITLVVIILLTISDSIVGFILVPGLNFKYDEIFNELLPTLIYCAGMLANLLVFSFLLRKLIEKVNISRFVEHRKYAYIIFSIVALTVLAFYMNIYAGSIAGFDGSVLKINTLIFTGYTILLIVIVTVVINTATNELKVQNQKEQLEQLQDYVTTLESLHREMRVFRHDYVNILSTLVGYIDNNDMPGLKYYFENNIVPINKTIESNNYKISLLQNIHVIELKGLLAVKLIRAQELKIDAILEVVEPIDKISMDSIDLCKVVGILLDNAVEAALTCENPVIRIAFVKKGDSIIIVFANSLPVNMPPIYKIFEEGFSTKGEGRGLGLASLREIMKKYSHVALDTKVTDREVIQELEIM
# PROTOCOL: Fluorescence (agr-GFP) reporter agonism assay, ΔagrD reporter strain
# Format: cell-based
# CONDITIONS: read-out: Max Activation Observed
Where a SMILES comes first, the peptide text is derived from it. Bridges are numbered along the chain shown (N, C = ends). [ ]: non-standard residue; d: D form. dDap = NC[C@@H](N)C(=O)O; Dap = NC[C@H](N)C(=O)O
ENDPOINT: Emax (%)
Give the value, in units of %, as a plain number.

• CSCC[C@H]1NC(=O)[C@H](Cc2ccccc2)NC(=O)[C@H](NC(=O)[C@@H](N)CCCCN)CSC(=O)[C@H](C(C)C)NC(=O)[C@H](Cc2ccccc2)NC1=O [A1K/C2dC/M4dM, K-(dC-F-dM-F-V)] (H-K[dC]F[dM]FV; thioester 2-C) = 8.1
• CSCC[C@@H]1NC(=O)[C@H](Cc2ccccc2)NC(=O)[C@@H](NC(=O)[C@H](C)N)CNC(=O)[C@H](C(C)C)NC(=O)[C@H](Cc2ccccc2)NC1=O [AIP C2Dap, A-(Dap-F-M-F-V)] (H-A[Dap]FMFV; lactam 2-C; N-terminus assumed) = 92.9
• CSCC[C@@H]1NC(=O)[C@H](Cc2ccccc2)NC(=O)[C@H](NC(=O)[C@H](C)N)CNC(=O)[C@H](C(C)C)NC(=O)[C@H](Cc2ccccc2)NC1=O [AIP C2dDap, A-(Dap-F-M-F-V)] (H-A[dDap]FMFV; lactam 2-C; N-terminus assumed) = 14.3
• CSCC[C@@H]1NC(=O)[C@H](Cc2ccccc2)NC(=O)[C@@H](NC(=O)[C@H](C)N)CSC(=O)[C@H](C(C)C)NC(=O)[C@H](CC(C)C)NC1=O [AIP F5L, A-(C-F-M-L-V)] (H-ACFMLV; thioester 2-C; N-terminus assumed) = 64.8
• CSCC[C@@H]1NC(=O)[C@H](Cc2ccccc2)NC(=O)[C@@H](NC(=O)[C@H](C)N)CSC(=O)[C@H](C(C)C)NC(=O)[C@H](Cc2ccc(O)cc2)NC1=O [AIP F5Y, A-(C-F-M-Y-V)] (H-ACFMYV; thioester 2-C; N-terminus assumed) = 44.4

Next molecule, please.
Given item CSCC[C@@H]1NC(=O)[C@H](Cc2ccccc2)NC(=O)[C@@H](NC(=O)[C@H](C)N)CSC(=O)[C@H](C(C)C)NC(=O)[C@H](Cc2ccccc2)NC1=O [AIP, A-(C-F-M-F-V), reference compound] (H-ACFMFV; thioester 2-C; N-terminus assumed) , the value recorded as its Emax is 114

----------
# ASSAY_TARGET: L. monocytogenes AgrC (Listeria monocytogenes serovar 1/2a)
# PROTOCOL: Fluorescence (agr-GFP) reporter agonism assay, ΔagrD reporter strain
# Assay type: cell-based
# Parameters: dose or concentration left out as unconfirmed
# CONDITIONS: read-out: Max Activation Observed
Where a SMILES comes first, the peptide text is derived from it. Bridges are numbered along the chain shown (N, C = ends). [ ]: non-standard residue; d: D form.
Would you mind labelling by Emax? At or over 80% is 1 (yes), under is 0 (no).

* CSCC[C@@H]1NC(=O)[C@H](Cc2ccccc2)NC(=O)[C@@H](NC(=O)[C@@H](N)[C@@H](C)O)CSC(=O)[C@H](C(C)C)NC(=O)[C@H](Cc2ccccc2)NC1=O [AIP A1T, T-(C-F-M-F-V)] (H-TCFMFV; thioester 2-C; N-terminus assumed) | 1 (yes)
* CSCC[C@@H]1NC(=O)[C@H](Cc2c[nH]cn2)NC(=O)[C@@H](NC(=O)[C@H](C)N)CSC(=O)[C@H](C(C)C)NC(=O)[C@H](Cc2ccccc2)NC1=O [AIP F3H, A-(C-H-M-F-V)] (H-ACHMFV; thioester 2-C; N-terminus assumed) | 0 (no)

Q: Dear colleague, could you confirm whether CSCC[C@@H]1NC(=O)[C@H](Cc2ccccc2)NC(=O)[C@H](NC(=O)[C@@H](N)CCCCN)CSC(=O)[C@H](C(C)C)NC(=O)[C@H](Cc2ccccc2)NC1=O [AIP A1K/C2dC, K-(dC-F-M-F-V)] (H-K[dC]FMFV; thioester 2-C; N-terminus assumed) has Emax at or above 80%?
Result: 0 (no)

Q: Dear colleague, could you confirm whether CSCC[C@@H]1NC(=O)[C@H](Cc2ccccc2)NC(=O)[C@@H](NC(=O)[C@@H](N)C(C)C)CSC(=O)[C@H](C(C)C)NC(=O)[C@H](Cc2ccccc2)NC1=O [AIP A1V, V-(C-F-M-F-V)] (H-VCFMFV; thioester 2-C; N-terminus assumed) has Emax at or above 80%?
Result: 1 (yes)
